Target system: USP7 (Homo sapiens)
Construct: USP7, construct USP7 (208-1102) 6*His, Viva Biotech; 6xHis (C); purchased Viva Biotech
Assay details: USP7 Assay A (Ubitquin-Rhodamine 110 Assay)
Type: biochemical
Conditions: USP7 activity in USP7 assay A and B (table does not say which assay per compound); read-out: USP7_IC50
pIC50: −log10 of the molar value.
Provide the reported pIC50 of each item.

Qu. Look at this molecule and give its reported pIC50. `CC1(C(=O)N2CCC(O)(Cn3cnc4c(cnn4-c4ccc(N5CCC6(CC5)CC(F)(F)C6)cc4)c3=O)CC2)CC1`
Ans. 6.00 to 6.70

Qu. Look at this molecule and give its reported pIC50. Cc1cncc(OC2CCC(C(=O)N3CCC(O)(Cn4cnc5c(cnn5-c5ccc(F)cc5)c4=O)CC3)CC2)n1 (stereo not shown)
Ans. 6.00 to 6.70

Qu. Look at this molecule and give its reported pIC50. `NC(=O)Cn1cc(-c2ccc(C(=O)N3CCC(O)(Cn4cnc5c(cnn5-c5ccc(F)cc5)c4=O)CC3)cc2)cn1`
Ans. 5.00 to 6.00

Qu. Look at this molecule and give its reported pIC50. `C[C@@]1(O)CCN(c2ccc(-n3ncc4c(=O)n(CC5(O)CCN(C(=O)C6CCCCC6)CC5)cnc43)cc2)C1`
Ans. 6.00 to 6.70

Qu. Look at this molecule and give its reported pIC50. Cn1ccc(NC2CCC(C(=O)N3CCC(O)(Cn4cnc5c(cnn5-c5ccc(F)cc5)c4=O)CC3)CC2)n1 (stereo not shown) [Compound I-765]
Ans. 5.00 to 6.00

Qu. Look at this molecule and give its reported pIC50. `CN1CCC2(CC1)CCN(c1ccc(-n3ncc4c(=O)n(CC5(O)CCN(C(=O)C6CC6)CC5)cnc43)cc1)CC2`
Ans. > 6.70

Qu. Look at this molecule and give its reported pIC50. `CC1(C(=O)N2CCC(O)(Cn3cnc4c(cnn4-c4cccc(N5CC(O)C5)c4)c3=O)CC2)CC1`
Ans. 6.00 to 6.70

###

Target system: USP7 (Homo sapiens, UniProt Q93009)
Construct: USP7, construct USP7 (208-1102) 6*His, Viva Biotech; 6xHis (C); purchased Viva Biotech
Sequence (Q93009 208-1102): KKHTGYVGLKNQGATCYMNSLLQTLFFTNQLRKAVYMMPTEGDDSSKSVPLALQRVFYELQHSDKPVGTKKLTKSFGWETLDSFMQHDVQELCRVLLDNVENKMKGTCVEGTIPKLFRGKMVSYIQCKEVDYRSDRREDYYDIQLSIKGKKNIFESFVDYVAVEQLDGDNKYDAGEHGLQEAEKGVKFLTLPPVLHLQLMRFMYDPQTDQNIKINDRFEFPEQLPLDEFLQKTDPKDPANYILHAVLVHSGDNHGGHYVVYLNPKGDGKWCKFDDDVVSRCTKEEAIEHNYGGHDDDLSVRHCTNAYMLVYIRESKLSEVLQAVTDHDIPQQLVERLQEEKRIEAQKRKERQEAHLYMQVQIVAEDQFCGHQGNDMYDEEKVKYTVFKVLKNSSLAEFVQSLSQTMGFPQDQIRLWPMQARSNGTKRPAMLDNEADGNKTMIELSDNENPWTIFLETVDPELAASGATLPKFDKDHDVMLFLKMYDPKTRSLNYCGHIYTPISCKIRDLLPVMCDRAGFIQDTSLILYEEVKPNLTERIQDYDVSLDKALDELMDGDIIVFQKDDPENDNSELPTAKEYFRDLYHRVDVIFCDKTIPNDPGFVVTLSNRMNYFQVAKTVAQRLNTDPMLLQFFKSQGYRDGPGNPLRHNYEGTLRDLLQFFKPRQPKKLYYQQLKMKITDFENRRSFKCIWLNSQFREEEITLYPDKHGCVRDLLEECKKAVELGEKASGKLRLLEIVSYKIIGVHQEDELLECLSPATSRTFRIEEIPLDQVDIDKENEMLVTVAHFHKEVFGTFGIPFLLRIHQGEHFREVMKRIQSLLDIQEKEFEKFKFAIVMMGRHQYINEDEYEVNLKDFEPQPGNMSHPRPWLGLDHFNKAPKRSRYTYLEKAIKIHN
Assay details: USP7 Assay A (Ubitquin-Rhodamine 110 Assay)
Format: biochemical
Conditions: USP7 assay A and B (table does not say which assay per compound); read-out: USP7_IC50
pIC50: −log10 of the molar value.
Provide the reported pIC50 of each item.

Qu. Look at this molecule and give its reported pIC50. `Cc1ccc(C(=O)N2CCC(O)(Cn3cnc4c(cnn4-c4ccccc4)c3=O)CC2)cc1C`
Ans. 5.00 to 6.00

Qu. Look at this molecule and give its reported pIC50. `CN(C)C(=O)N1CCC(O)(Cn2cnc3c(cnn3-c3cccc(N4C[C@@H](O)[C@H](F)C4)c3)c2=O)CC1`
Ans. 5.00 to 6.00

Qu. Look at this molecule and give its reported pIC50. `CN(C)C(=O)N1CCC(O)(Cn2cnc3c(cc(-c4ccccc4)n3-c3ccc(F)cc3)c2=O)CC1`
Ans. 5.00 to 6.00

Qu. Look at this molecule and give its reported pIC50. `O=C(c1ccc(Cl)cc1Cl)N1CCC(O)(Cn2cnc3c(cnn3-c3ccccc3)c2=O)CC1`
Ans. 6.00 to 6.70

Qu. Look at this molecule and give its reported pIC50. `Cn1ncc2c(=O)n(CC3(O)CCN(C(=O)c4ccc(Nc5ccccc5)cc4)CC3)cnc21`
Ans. 5.00 to 6.00

Qu. Look at this molecule and give its reported pIC50. CC(CC(=O)N1CCC(O)(Cn2cnc3c(cnn3C)c2=O)CC1)n1cccc1 (stereo not drawn)
Ans. 6.00 to 6.70

Qu. Look at this molecule and give its reported pIC50. `O=C(C1CC1)N1CCC(O)(Cn2cnc3c(cnn3-c3cccc(-c4cncc(F)c4)c3)c2=O)CC1`
Ans. 5.00 to 6.00

Qu. Look at this molecule and give its reported pIC50. `NCc1cccc(-n2ccc3c(=O)n(CC4(O)CCN(C(=O)c5ccc(F)cc5)CC4)cnc32)c1`
Ans. 5.00 to 6.00

Qu. Look at this molecule and give its reported pIC50. `O=C(C1CCCC1)N1CCC(O)(Cn2cnc3c(cnn3-c3ccccc3)c2=O)CC1`
Ans. 6.00 to 6.70

Qu. Look at this molecule and give its reported pIC50. O=C(CC(c1ccccc1)C(F)F)N1CCC(O)(Cn2cnc3c(cnn3-c3ccccc3)c2=O)CC1 (stereo not drawn)
Ans. > 6.70

Qu. Look at this molecule and give its reported pIC50. `CN(C)C(=O)N1CCC(O)(Cn2cnc3c(cnn3-c3ccc(N4CCNCC4)cc3)c2=O)CC1`
Ans. 5.00 to 6.00

Qu. Look at this molecule and give its reported pIC50. `Nc1ccc(-n2ncc3c(=O)n(CC4(O)CCN(C(=O)C5CC5)CC4)cnc32)cc1`
Ans. 5.00 to 6.00

Qu. Look at this molecule and give its reported pIC50. `O=C(c1ccc(OC(F)F)cc1)N1CCC(O)(Cn2cnc3c(cnn3-c3ccc(CO)cc3)c2=O)CC1`
Ans. 6.00 to 6.70

Qu. Look at this molecule and give its reported pIC50. `Cc1ccc(-n2ncc3c(=O)n(CC4(O)CCN(C(=O)c5ccc(OC6CCOCC6)cc5)CC4)cnc32)cc1`
Ans. 5.00 to 6.00

Qu. Look at this molecule and give its reported pIC50. `O=C(C[C@@H](c1ccccc1)C(F)F)N1CCC(O)(Cn2cnc3c(cnn3-c3ccccc3)c2=O)CC1`
Ans. > 6.70

###

Provide the reported IC50 of each item.
Target system: USP7 (Homo sapiens)
Construct: USP7, construct USP7 (208-1102) 6*His, Viva Biotech; 6xHis (C); purchased Viva Biotech
Assay details: USP7 Assay A (Ubitquin-Rhodamine 110 Assay)
Assay type: biochemical
Conditions: USP7 activity in USP7 assay A and B (table does not say which assay per compound); read-out: USP7_IC50

Qu. Look at this molecule and give its reported IC50. `CC1(C(=O)N2CCC(O)(Cn3cnc4c(cnn4-c4ccc(-c5cnn(C6CC6)c5)cc4)c3=O)CC2)CC1`
Ans. 0.2 to 1 µM

Qu. Look at this molecule and give its reported IC50. `O=C(C[C@@H](C(F)F)n1cccn1)N1CCC(O)(Cn2cnc3c(cnn3-c3ccc(Cl)cc3)c2=O)CC1`
Ans. 0.2 to 1 µM

Qu. Look at this molecule and give its reported IC50. `CN1CCC(Oc2ccc(C(=O)N3CCC(O)(Cn4cnc5c(cnn5-c5ccc(Cl)cc5)c4=O)CC3)cc2)CC1`
Ans. 1 to 10 µM

Qu. Look at this molecule and give its reported IC50. O=C(C1CCC(Nc2cccc(F)n2)CC1)N1CCC(O)(Cn2cnc3c(cnn3-c3ccc(F)cc3)c2=O)CC1 (stereo not shown) [Compound I-1024]
Ans. < 0.2 µM

Qu. Look at this molecule and give its reported IC50. O=C(C1CCC(Oc2ccncc2)CC1)N1CCC(O)(Cn2cnc3c(cnn3-c3ccc(F)cc3)c2=O)CC1 (stereo not shown) [Compound I-751]
Ans. 1 to 10 µM

Qu. Look at this molecule and give its reported IC50. `CC1(C(=O)N2CCC(O)(Cn3cnc4c(cnn4-c4ccc(N5CC(C(C)(C)O)C5)cc4)c3=O)CC2)CC1`
Ans. 0.2 to 1 µM

Qu. Look at this molecule and give its reported IC50. `O=C(C[C@H](C(F)F)n1cc(Cl)cn1)N1CCC(O)(Cn2cnc3c(cnn3-c3ccc(F)cc3)c2=O)CC1`
Ans. 0.2 to 1 µM

###

Provide the reported pIC50 of each item.
Target system: USP7 (Homo sapiens, UniProt Q93009)
Construct: USP7, construct USP7 (208-1102) 6*His, Viva Biotech; 6xHis (C); purchased Viva Biotech
Assay details: USP7 Assay A (Ubitquin-Rhodamine 110 Assay)
Format: biochemical
Conditions: USP7_IC50, USP7 activity in USP7 assay A and B (table does not say which assay per compound)
pIC50: −log10 of the molar value.

Qu. Look at this compound and give its reported pIC50. `CN1C2CCC1CN(c1cccc(-n3ncc4c(=O)n(CC5(O)CCN(C(=O)C6(C)CC6)CC5)cnc43)c1)C2`
Ans. > 6.70

Qu. Look at this compound and give its reported pIC50. `CC1(C(=O)N2CCC(O)(Cn3cnc4c(cnn4-c4cccc(N5CC6CC(C5)O6)c4)c3=O)CC2)CC1`
Ans. > 6.70

###

Target system: USP7 (Homo sapiens)
Construct: USP7, construct USP7 (208-1102) 6*His, Viva Biotech; 6xHis (C); purchased Viva Biotech
Assay details: USP7 Assay A (Ubitquin-Rhodamine 110 Assay)
Type: biochemical
Conditions: USP7 activity in USP7 assay A and B (table does not say which assay per compound); read-out: USP7_IC50
pIC50: −log10 of the molar value.
Experimental endpoint: pIC50

Qu. Look at this compound and give its reported pIC50. Cn1nccc1NC1CCC(C(=O)N2CCC(O)(Cn3cnc4c(cnn4-c4ccc(F)cc4)c3=O)CC2)CC1 (stereo not drawn) [Compound I-763]
Ans. 5.00 to 6.00

Qu. Look at this compound and give its reported pIC50. Cn1ncc2c(=O)n(CC3(O)CCN(C(=O)CC(C(F)F)n4ccc(F)n4)CC3)cnc21 (single isomer, unassigned) [Compound I-1698]
Ans. < 5.00

Qu. Look at this compound and give its reported pIC50. Cc1cnc(-c2ccc(-n3ncc4c(=O)n(CC5(O)CCN(C(=O)c6ccc(F)cc6)CC5)cnc43)cc2)n1C [Compound I-984]
Ans. 5.00 to 6.00
